assay_system: T1, flPOT1 C591W (Homo sapiens, UniProt Q9NUX5 1-634, C591W)
T1 sequence: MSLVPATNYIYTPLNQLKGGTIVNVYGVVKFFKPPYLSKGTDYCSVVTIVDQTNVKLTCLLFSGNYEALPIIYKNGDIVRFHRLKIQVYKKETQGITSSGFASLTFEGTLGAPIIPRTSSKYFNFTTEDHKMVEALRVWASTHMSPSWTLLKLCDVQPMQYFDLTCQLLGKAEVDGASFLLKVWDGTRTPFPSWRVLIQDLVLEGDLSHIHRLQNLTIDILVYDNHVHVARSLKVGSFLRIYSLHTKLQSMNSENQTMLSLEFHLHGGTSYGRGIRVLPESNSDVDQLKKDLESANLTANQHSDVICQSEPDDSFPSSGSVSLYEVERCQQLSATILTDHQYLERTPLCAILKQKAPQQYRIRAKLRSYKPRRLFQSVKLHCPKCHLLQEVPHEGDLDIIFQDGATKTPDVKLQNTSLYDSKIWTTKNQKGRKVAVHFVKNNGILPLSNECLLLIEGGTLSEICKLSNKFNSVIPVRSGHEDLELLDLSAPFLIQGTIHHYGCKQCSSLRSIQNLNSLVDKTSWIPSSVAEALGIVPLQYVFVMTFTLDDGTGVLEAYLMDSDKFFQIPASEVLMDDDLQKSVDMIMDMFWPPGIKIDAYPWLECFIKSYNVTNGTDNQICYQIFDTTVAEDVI
experiment_summary: fluorescence polarization; FP: 20 mM Hepes pH 7.5, 100 mM KCl, 2 mM MgCl2, 1 mM EDTA, 2 mM DTT, 1 mg/ml BSA, 5% glycerol, 75 nM polyT50 competitor, 2.5 nM probe, room temperature 30 min
setup_conditions: protein: recombinant; tags: N-terminal His6-pMocr, TEV-cleaved; label: 5' 6-FAM; single strand

[
  {
    "binder": "TTAGGGTTAGGGTTAGGG (ssDNA) [telomeric 18mer (TTAGGG)3]",
    "Kd": "~20 nM"
  }
]

Numbers sourced from paper PMC5394233.
